# System: Candida albicans
# assay-text: Antifungal activity against Candida albicans assessed as fungal growth inhibition by CLSI protocol based microbroth dilution method
# Assay type: functional
Give MIC for every item shown.
Note to self: number, then unit, no commentary.

Query string: Entry O=C(Cn1cnc2c(N3CCCCCC3)ncnc21)c1nccs1 : reported MIC = ?
Result string: 256 µg/mL

Query string: Quick one: CCCCCCN1CCN(c2ncnc3c2ncn3CC(=O)c2nccs2)CC1
Result string: 4 µg/mL

Query string: Quick one: CC(C)N(C(=O)CN1CCN(c2ncnc3c2ncn3CC(=O)c2nccs2)CC1)C(C)C
Result string: 4 µg/mL

Query string: Quick one: CC(C)(C)OC(=O)N1CCN(C(=O)CN2CCN(c3ncnc4c3ncn4CC(=O)c3nccs3)CC2)CC1
Result string: 32 µg/mL

Query string: Quick one: O=C(Cn1cnc2c(N3CCN(Cc4ccc(F)cc4)CC3)ncnc21)c1nccs1
Result string: 32 µg/mL

Query string: Quick one: O=C(Cn1cnc2c(N3CCN(CC(=O)N(C4CCCCC4)C4CCCCC4)CC3)ncnc21)c1nccs1
Result string: 8 µg/mL

Query string: Quick one: C#CCN1CCN(c2ncnc3c2ncn3CC(=O)c2nccs2)CC1
Result string: 256 µg/mL

Query string: Quick one: CCOC(=O)CN1CCN(c2ncnc3c2ncn3C/C(=N/O)c2nccs2)CC1
Result string: 4 µg/mL

Query string: Quick one: O=C(Cn1cnc2c(Cl)ncnc21)c1nccs1
Result string: 64 µg/mL

Query string: Quick one: O=C(Cn1cnc2c(N3CCN(Cc4ccc([N+](=O)[O-])cc4)CC3)ncnc21)c1nccs1
Result string: 8 µg/mL

Query string: Quick one: O=C(Cn1cnc2c(N3CCN(CCO)CC3)ncnc21)c1nccs1
Result string: 1 µg/mL

Query string: Quick one: O=C(Cn1cnc2c(N3CCCC3)ncnc21)c1nccs1
Result string: 16 µg/mL

Query string: Quick one: O=C(Cn1cnc2c(N3CCN(Cc4ccccc4F)CC3)ncnc21)c1nccs1
Result string: 256 µg/mL

Query string: Quick one: CCO/N=C(/Cn1cnc2c(N3CCN(CC(=O)OCC)CC3)ncnc21)c1nccs1
Result string: 64 µg/mL

Query string: Quick one: CCCCCCCCCCCCN1CCN(c2ncnc3c2ncn3CC(=O)c2nccs2)CC1
Result string: 4 µg/mL

Query string: Quick one: O=C(Cn1cnc2c(N3CCN(Cc4ccc(Cl)cc4)CC3)ncnc21)c1nccs1
Result string: 32 µg/mL

Query string: Quick one: CCN1CCN(c2ncnc3c2ncn3CC(=O)c2nccs2)CC1
Result string: 32 µg/mL

Query string: Quick one: CCCCN1CCN(c2ncnc3c2ncn3CC(=O)c2nccs2)CC1
Result string: 4 µg/mL

Query string: Quick one: Cc1ccc(CN2CCN(c3ncnc4c3ncn4CC(=O)c3nccs3)CC2)cc1
Result string: 16 µg/mL

Query string: Quick one: O=C(Cn1cnc2c(N3CCNCC3)ncnc21)c1nccs1
Result string: 64 µg/mL

Query string: Quick one: C=CCN1CCN(c2ncnc3c2ncn3CC(=O)c2nccs2)CC1
Result string: 4 µg/mL

Query string: Quick one: N#CCN1CCN(c2ncnc3c2ncn3CC(=O)c2nccs2)CC1
Result string: 8 µg/mL

Query string: Quick one: CCOC(=O)CN1CCN(c2ncnc3c2ncn3CC(O)c2nccs2)CC1 (stereo not given)
Result string: 128 µg/mL

Query string: Quick one: OC(Cn1cncn1)(Cn1cncn1)c1ccc(F)cc1F
Result string: 4 µg/mL

Query string: Quick one: N#CCN(CC#N)C(=O)CN1CCN(c2ncnc3c2ncn3CC(=O)c2nccs2)CC1
Result string: 16 µg/mL
